- STATED CONDITIONS: [M+H]+; instrument: TW; calibrated with polyalanine and drug standards
The label depends only on collision cross section (N2): condition met if it is at least 200 Å², condition not met if it is smaller.

MOLECULE	GROUP
CC(C)c1c(CN(C)C(C)Cc2ccccc2)n(C)n(-c2ccccc2)c1=O (configuration not stated) [FAMPROFAZONE]	condition not met
COc1cc2c(cc1OC)C(=O)OC2 [METAMECONINE]	condition not met
COc1ccc2cc1Oc1ccc(cc1)C[C@H]1c3cc(c(OC)cc3CCN1C)Oc1c(OC)c(OC)cc3c1[C@H](C2)N(C)CC3 [TETRANDRINE]	condition met
COc1cc(OC)c(OC)cc1C=O [ASARYLALDEHYDE]	condition not met
CCCc1nc(C(C)(C)O)c(C(=O)OCc2oc(=O)oc2C)n1Cc1ccc(-c2ccccc2-c2nn[nH]n2)cc1 [OLMESARTAN MEDOXOMIL]	condition met

Req: Given the entry O=C(CCCN1CCC(O)(c2ccc(Cl)cc2)CC1)c1ccc(F)cc1 [HALOPERIDOL] , answer whether its collision cross section (N2) meets or surpasses 200 Å².
Resp: condition not met

Req: Given the entry COC(=O)[C@]1(C)CC[C@]2(C)CC[C@]3(C)C4=CC=C5C(=CC(=O)C(O)=C5C)[C@]4(C)CC[C@@]3(C)[C@@H]2C1 [PRISTIMERIN] , answer whether its collision cross section (N2) meets or surpasses 200 Å².
Resp: condition met

---

- STATED CONDITIONS: [M+Na]+; instrument: DT; single field, calibrated with Agilent tune mix (Agilent)
Entries and their measured collision cross section (N2) follow.
Field: numeric (Å²). Do not append units.

Take a look at these entries with their results.
COMPOUND	OBSERVED RESULT
Nc1ccn([C@H]2C[C@H](O)[C@@H](COP(=O)(O)OP(=O)(O)O)O2)c(=O)n1 [2'-Deoxycytidine diphosphate]	174.5
O=C(O)/C=C/CCCCCCCCC(=O)O	161.9
CO[C@H]1[C@@H](O)[C@H](n2cnc3c(=O)nc(N)[nH]c32)O[C@@H]1CO	178.1
O=P(O)(O)OC[C@H]1OC(O)[C@@H](O)[C@@H](O)[C@@H]1O (stereo partly specified) [Mannose-6-phosphate]	155.8
CC(=O)N[C@H]1[C@H]([C@H](O)[C@H](O)CO)O[C@](OP(=O)(O)OC[C@H]2O[C@@H](n3ccc(N)nc3=O)[C@H](O)[C@@H]2O)(C(=O)O)C[C@@H]1O [Cytidine monophosphate N-acetylneuraminic acid]	220.7

Kindly review the next compound as well.
Req: Please list collision cross section (N2) recorded for the compound OC[C@H]1O[C@@H](Oc2ccc(O)cc2)[C@H](O)[C@@H](O)[C@@H]1O
Resp: 166.6

---

- STATED CONDITIONS: [M+Na]+; instrument: DT; single field, calibrated with Agilent tune mix (Agilent)
MEASURED ENDPOINT: collision cross section (N2)

Take a look at these entries with their results.
COMPOUND	collision cross section (N2)
CCCCCCCCCCCCC=CC[C@@H](O)[C@H](CO[C@@H]1O[C@H](CO)[C@@H](O)C(O)C1O)NC(=O)CC=CCCCCCCCCCCCCCCCCCCCC (stereo partly specified)	300.4 Å²
CCCCCCCCCCCCC=CC[C@@H](O)[C@H](CO)NC(=O)CC=CCCCCCCCCCCCCCCCCCC	271.4 Å²
CCCCC/C=C\C/C=C\C/C=C\C/C=C\CCCCCC(=O)O[C@H](COC(=O)CCCCCCC/C=C\C/C=C\CCCCC)COP(=O)(O)OCCN	290.3 Å²
CCCCCCCCCCCCC=CC[C@@H](O)[C@H](CO)NC(=O)CCCCCCCCCCCCCCCCCC	269.8 Å²
CCCC/C=C\C/C=C\CCCCCCCC(=O)O[C@H](COC(=O)CCCCCCC/C=C\CCCCCCCCC)COP(=O)(O)O[C@H]1C(O)C(O)C(O)[C@@H](O)C1O (stereo partly specified)	295.5 Å²
CCCC/C=C\CCCCCCCC(=O)O[C@H](CO/C=C\CCCCCCCCCCCCCCCCCC)COP(=O)(O)OCCN	276.9 Å²

Req: Please list collision cross section (N2) recorded for the compound CCCCC/C=C\C/C=C\C/C=C\CCCCC(=O)OC[C@H](COP(=O)(O)OC[C@H](N)C(=O)O)OC(=O)CCCCCCCCCCC/C=C\C/C=C\CCCCC
Resp: 296.7 Å²

Req: Please list collision cross section (N2) recorded for the compound CC/C=C\C/C=C\C/C=C\CCCCCCCC(=O)OC[C@H](COP(=O)([O-])OCC[N+](C)(C)C)OC(=O)CCCCCC/C=C\C/C=C\C/C=C\CCCCC
Resp: 293.3 Å²

Req: Please list collision cross section (N2) recorded for the compound CCCCC/C=C\C/C=C\CCCCCCCC(=O)OC[C@@H](O)COP(=O)([O-])OCC[N+](C)(C)C
Resp: 231.9 Å²

Req: Please list collision cross section (N2) recorded for the compound CC/C=C\C/C=C\C/C=C\C/C=C\CCCCC(=O)O[C@H](COC(=O)CCCCCCCCCCC/C=C\C/C=C\CCCCC)COP(=O)(O)OC[C@@H](O)CO
Resp: 292.4 Å²

Req: Please list collision cross section (N2) recorded for the compound CCCCCCCC/C=C\CCCCCCCCCCCC(=O)OC[C@H](COP(=O)([O-])OCC[N+](C)(C)C)OC(=O)CCCCCCCCCCCCC
Resp: 297.1 Å²

Req: Please list collision cross section (N2) recorded for the compound CCCCCCCCCC/C=C\CCCCCCCCCC(=O)O[C@H](COC(=O)CCCCCCCCCCCCC)COP(=O)(O)O[C@H]1C(O)C(O)C(O)[C@@H](O)C1O (stereo partly specified)
Resp: 299 Å²

Req: Please list collision cross section (N2) recorded for the compound CCCCC/C=C\C/C=C\C/C=C\C/C=C\CCCCCC(=O)O[C@H](COC(=O)CCCCCCC/C=C\C/C=C\CCCCC)COP(=O)(O)OC[C@H](N)C(=O)O
Resp: 293.9 Å²

Req: Please list collision cross section (N2) recorded for the compound CC/C=C\C/C=C\C/C=C\C/C=C\CCCCC(=O)OC[C@H](COP(=O)(O)O[C@H]1C(O)C(O)C(O)[C@@H](O)C1O)OC(=O)CCCCCCCCCCCCCCCCCC (stereo partly specified)
Resp: 297.6 Å²

Req: Please list collision cross section (N2) recorded for the compound CCCCCCCCCCCCC=CC[C@@H](O)[C@H](CO)NC(=O)CC=CCCCCCCCCCCCCCCCC
Resp: 262.1 Å²

Req: Please list collision cross section (N2) recorded for the compound CCCCCCCCCCCCC=CC[C@@H](O)[C@H](COP(=O)([O-])OCC[N+](C)(C)C)NC(=O)CCCCCCCCCCCCCCCCC
Resp: 290 Å²
